Molecular target: Nuclear receptor subfamily 1 group I member 2 (Rattus norvegicus) (UniProt Q9R1A7)
Sequence (Q9R1A7 whole entry, looked up): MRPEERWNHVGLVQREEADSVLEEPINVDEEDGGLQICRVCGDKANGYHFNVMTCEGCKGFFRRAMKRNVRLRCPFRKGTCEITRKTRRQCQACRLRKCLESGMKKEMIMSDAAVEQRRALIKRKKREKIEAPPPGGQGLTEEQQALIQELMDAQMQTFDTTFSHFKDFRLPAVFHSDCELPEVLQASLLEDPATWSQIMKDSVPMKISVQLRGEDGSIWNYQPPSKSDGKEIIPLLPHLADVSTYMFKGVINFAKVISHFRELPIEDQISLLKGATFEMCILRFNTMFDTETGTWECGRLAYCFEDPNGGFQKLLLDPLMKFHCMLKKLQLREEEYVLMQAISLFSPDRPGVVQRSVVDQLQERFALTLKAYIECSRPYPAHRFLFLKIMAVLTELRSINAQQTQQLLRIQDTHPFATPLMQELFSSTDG
Assay: Rat pregnane X receptor (rPXR) activation by small molecules, qHTS assay (AID 1346983); note: % is set by controls: 0 for no effect and ±100 for the full control effect
Settings: rPXR luciferase reporter cells, One-Glo luminescence, 24 h; stronger effect = higher value
Inconclusive results are not listed.
# key: entry, value: max activation
Property name: max activation (%)

> print(dat)
                                    compound  experimental.result
 1  CCOC(=O)[C@H](CCc1ccccc1)N[C@@H](C)C(=O)N1[C@H](C(=O)O)C[C@@H]2CCC[C@@H]21                -3.39
 2  CCCCC(CC)COC(=O)c1ccccc1O (configuration not stated)                -4.33
 3       O=C1NC(=O)[C@@]2(CCOc3ccc(F)cc32)N1               -0.447
 4  Cc1cccc(C)c1NC(=O)C(C)N (configuration not stated)               -0.615
 5                       c1ccc(CC2=NCCN2)cc1                -1.57
 6     O=C(CCCN1CCN(c2ccccn2)CC1)c1ccc(F)cc1               0.0374
 7          Cc1cccn2c(=O)c(-c3nnn[nH]3)cnc12                 -7.7
 8  CC(C)c1cc2c(cc1S(=O)(=O)O)[C@@]1(C)CCC[C@@](C)(C(=O)O)[C@@H]1CC2                  2.4
 9  NS(=O)(=O)c1cc(C(=O)O)cc(N2CCCC2)c1Oc1ccccc1                 1.61
10  FC(F)OC(Cl)C(F)(F)F (configuration not stated)                -3.14
11       CCN(CC)CCOCCOC(=O)C1(c2ccccc2)CCCC1                0.476
12     CCN(CC)CCNC(=O)c1cc(S(C)(=O)=O)ccc1OC                -2.45
